IC50: recorded values
Target: Macrophage migration inhibitory factor (Homo sapiens, UniProt P14174)
Sequence (P14174 whole entry): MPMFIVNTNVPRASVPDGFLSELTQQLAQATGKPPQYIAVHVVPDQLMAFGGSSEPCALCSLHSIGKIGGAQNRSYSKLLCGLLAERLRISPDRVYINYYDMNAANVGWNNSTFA
Could you give me the number in µM? Just the number is fine.

| structure as smiles | measure unit | observed value |
| --- | --- | --- |
| Oc1ccc(/C=N/Nc2ccccc2)cc1 | µM | 2.6 |
| COc1ccc(COC(=O)N/N=C/c2ccc(O)cc2)cc1 | µM | 8 |
| O=C(N/N=C/c1ccc(O)cc1)OCc1ccccc1 | µM | 10 |
| CN(/N=C/c1ccc(O)cc1)c1ccccc1 | µM | 300 |
| CCOC(=O)N/N=C/c1ccc(O)cc1 | µM | 43 |

Prompt: For CC(C)(C)OC(=O)N/N=C/c1ccc(O)cc1 , what is its reported IC50?
Response: 5.5

Prompt: For COC(=O)N/N=C/c1ccc(O)cc1 , what is its reported IC50?
Response: 55

Prompt: For COc1ccc(N/N=C/c2ccc(O)c(F)c2)cc1 , what is its reported IC50?
Response: 0.13
